Tested on: C. albicans ATCC 44859
experiment description: Test 1: Action against Candida albicans (in vitro)
Type: cell-based
condition description: ATCC44859, minimum concentration with apparent suppression of mycelial type growth vs medicament-free control, MEM medium + 10% fetal bovine serum, 37° C., 24 hours, CO2, read-out: Terminal point C. albicans
experimental endpoint: MIC
Record the result as a number with its unit.

Sample answers from the record:
[[record]]
molecule = "COC(Cn1cncn1)(c1ccc(F)cc1F)C(F)(F)SC1CC1 (stereo not drawn) [Example 10]"
recorded_measurement = "0.0313 mg/L"

[[record]]
molecule = "OC(Cn1cncn1)(Cn1cncn1)c1ccc(F)cc1F [Fluconazole, reference compound]"
recorded_measurement = "0.25 mg/L"

[[record]]
molecule = "OC(Cn1cncn1)(c1ccc(F)cc1F)C(F)(F)SC1CC1 (stereo not drawn) [Example 7]"
recorded_measurement = "0.0078 mg/L"

[[record]]
molecule = "O=S(=O)(C1CC1)C(F)(F)C(O)(Cn1cncn1)c1ccc(F)cc1F (racemic) [Example 12]"
recorded_measurement = "0.0313 mg/L"

[[record]]
molecule = "OC(Cn1cncn1)(c1ccc(F)cc1)C(F)(F)SC1CC1 (stereo not drawn) [Example 8]"
recorded_measurement = "0.0156 mg/L"


Just so you know, measured MIC for O=S(=O)(C1CC1)C(F)(F)C(O)(Cn1cncn1)c1ccc(F)cc1F (single isomer, unassigned; (-)) [Example 17(2)] came out at 0.0156 mg/L

====

Observed MIC for A. fumigatus IFM 40808, reported per entry below.
Give bare numbers, in µg/mL.

[[record]]
compound = "OC(Cn1cncn1)(c1ccc(F)cc1)C(F)(F)SC1CC1 (stereo not drawn)"
measured_target = "A. fumigatus IFM 40808"
readout_units = "µg/mL"
recorded_measurement = 8

[[record]]
compound = "OC(Cn1cncn1)(c1ccc(F)cc1F)C(F)(F)SC1CC1 (stereo not drawn)"
measured_target = "A. fumigatus IFM 40808"
readout_units = "µg/mL"
recorded_measurement = 2

[[record]]
compound = "O=S(=O)(C1CC1)C(F)(F)C(O)(Cn1cncn1)c1ccc(F)cc1F (racemic) [Example 12]"
measured_target = "A. fumigatus IFM 40808"
readout_units = "µg/mL"
recorded_measurement = 8

[[record]]
compound = "COC(Cn1cncn1)(c1ccc(F)cc1F)C(F)(F)SC1CC1 (stereo not drawn)"
measured_target = "A. fumigatus IFM 40808"
readout_units = "µg/mL"
recorded_measurement = 32


API: the following record is the query input.
Just so you know, measured MIC for O=S(=O)(C1CC1)C(F)(F)C(O)(Cn1cncn1)c1ccc(F)cc1F (single isomer, unassigned; (-)) [Example 17(2)] came out at 2
